- System: MS2 coat protein
- protocol_text: apparent KD of MS2 coat protein, switch ON state; designed switch direction (-1 OFF switch, 1 ON switch): -1; higher = weaker reporter binding
- condition_notes: FMN input: 0 or 200 uM; Eterna round: R93 (includes R88 designs)
result_type: apparent KD of MS2 coat protein (nM)
Respond numerically; units are nM and should not be typed.

Recorded apparent KD of MS2 coat protein, per entry:
- GGAAAGCAAGGAUAUGCAAACAAACAAACAAACAAAAGGGAACAUGAGGAUCACCCAUGUAGAAGGUGCAAACA [Exclusion 2 Two redone]: 41.9
- AGAAAACAUGAGGAUCACCCAUGUCAGGAUAUCAAAAAGAAAAGAAAAGAAAGAAGAAUGAGAAGGGACAAGAA [Khasekhem(wy)]: 27.5
- UAAAGACAUGAGGAUCACCCAUGUGAGGAUAUAGGUGUAUGCAAAAAAAAGCAUACACCUAGAAGGCACAGAAA [JR_Exc001_Sub303]: 44
- AAAAUACAUGAGGAUCACCCAUGUGAGGAUAUGCUAUGGAAAAAUAAAAUAAAACAUAGCAGAAGGCACAAAAA [Mat - Exclusion 1 - Eli mod - D41]: 34.3
- GAAAAGGCAGGAUAUACAGGAUAUAGAAGGAGGAUAUAGAGACAUGAGGAUCACCCAUGUAGAAGGGCCAAAAG [Diamond 80]: 48.3

Now examine the next entry.
Data point: GCUGUGCAAGGAUAUACAUGAGGAUCACCCAUGUGAGAGAAAAAAGUGAGAAAGAAAAGUAGAAGGUGCGUAGG [salish99-ex3-99] ; apparent KD of MS2 coat protein = 36.5

The origin of these recorded values is the supplement of paper PMC9170038.
